# Test system: Peroxisome proliferator-activated receptor alpha (Homo sapiens, UniProt Q07869)
# Sequence (Q07869 whole entry): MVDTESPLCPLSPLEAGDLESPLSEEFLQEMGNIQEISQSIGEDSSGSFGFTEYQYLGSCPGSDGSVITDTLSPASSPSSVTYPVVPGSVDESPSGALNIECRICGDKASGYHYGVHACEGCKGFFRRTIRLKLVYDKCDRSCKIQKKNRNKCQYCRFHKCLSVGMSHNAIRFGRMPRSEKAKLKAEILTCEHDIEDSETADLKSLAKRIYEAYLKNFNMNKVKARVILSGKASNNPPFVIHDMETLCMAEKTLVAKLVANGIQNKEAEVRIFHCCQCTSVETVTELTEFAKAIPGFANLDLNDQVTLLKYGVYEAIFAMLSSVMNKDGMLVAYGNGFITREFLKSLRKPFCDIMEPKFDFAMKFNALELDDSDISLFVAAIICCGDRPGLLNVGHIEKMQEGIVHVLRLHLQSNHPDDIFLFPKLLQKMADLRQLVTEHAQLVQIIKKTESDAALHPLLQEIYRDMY
# Experiment notes: Agonist activity at human PPARalpha in U2OS cells by transactivation assay
// reported EC50 per item
# number only, unit nM dropped from output

COC(=O)C1Cc2ccc(OCCc3nc(-c4ccc(-c5ccccc5)cc4)oc3C)cc2OC1=O (stereo not drawn); 910
COC(=O)C1Cc2ccc(OCCc3nc(-c4ccccc4)oc3C)cc2OC1=O (stereo not drawn); 140

In the following, a different molecule is considered.
Lookup result for COC(=O)C1Cc2ccc(OCCc3nc(-c4ccc(F)cc4)oc3C)cc2OC1=O (stereo not drawn) ; measured EC50: 100

* * *

# Test system: Peroxisome proliferator-activated receptor alpha (Homo sapiens, UniProt Q07869)
# Experiment notes: Agonist activity at human PPARalpha in U2OS cells by transactivation assay
Readout label: EC50 (µM)
# number only, unit µM dropped from output

Lookup result for COC(=O)c1cc2ccc(OCCc3nc(-c4ccc(-c5ccccc5)cc4)oc3C)cc2oc1=O ; measured EC50: 1.23

Lookup result for COC(=O)c1cc2ccc(OCCc3nc(-c4ccc(F)cc4)oc3C)cc2oc1=O ; measured EC50: 0.07

Lookup result for COC(=O)c1cc2ccc(OCCc3nc(-c4ccc(OC)cc4)oc3C)cc2oc1=O ; measured EC50: 5.25

Lookup result for COC(=O)C1Cc2ccc(OCCc3nc(-c4cccc(C)c4)oc3C)cc2OC1=O (centres undefined) ; measured EC50: 1.55

* * *

// reported log10 EC50 per item
# Test system: Peroxisome proliferator-activated receptor gamma (Homo sapiens, UniProt P37231)
# Sequence (P37231 whole entry): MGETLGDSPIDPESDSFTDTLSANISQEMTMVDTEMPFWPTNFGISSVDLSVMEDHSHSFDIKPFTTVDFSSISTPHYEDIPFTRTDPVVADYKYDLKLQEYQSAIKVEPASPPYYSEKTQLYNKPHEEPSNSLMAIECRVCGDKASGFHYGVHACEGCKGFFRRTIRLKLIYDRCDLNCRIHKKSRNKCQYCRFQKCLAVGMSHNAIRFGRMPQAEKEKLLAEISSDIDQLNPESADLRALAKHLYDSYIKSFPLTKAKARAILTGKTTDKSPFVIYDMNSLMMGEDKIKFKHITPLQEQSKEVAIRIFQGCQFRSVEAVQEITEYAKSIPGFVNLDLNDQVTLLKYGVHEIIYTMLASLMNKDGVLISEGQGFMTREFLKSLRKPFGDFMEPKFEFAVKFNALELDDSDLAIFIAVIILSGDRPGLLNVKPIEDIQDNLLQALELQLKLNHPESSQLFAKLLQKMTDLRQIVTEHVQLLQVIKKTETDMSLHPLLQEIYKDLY
Heads up: the numbers are on a log10 scale; they represent EC50 in nM.

Worked examples, 5 compounds total:
COC(=O)C1Cc2ccc(OCCc3nc(-c4ccc(C(C)(C)C)cc4)oc3C)cc2OC1=O (configuration not stated); 2.40
COC(=O)C1Cc2ccc(OCCc3nc(-c4ccc(C)cc4)oc3C)cc2OC1=O (configuration not stated); 0.00
COC(=O)c1cc2ccc(OCCc3nc(-c4cccc(C(F)(F)F)c4)oc3C)cc2oc1=O; 2.62
COC(=O)c1cc2ccc(OCCc3nc(-c4ccc(-c5ccccc5)cc4)oc3C)cc2oc1=O; 3.10
COC(=O)C1Cc2ccc(OCCc3nc(-c4ccc(F)cc4)oc3C)cc2OC1=O (configuration not stated); 0.00

Lookup result for COC(=O)C1Cc2ccc(OCCc3nc(-c4cccc(OC)c4)oc3C)cc2OC1=O (configuration not stated) ; measured log10 EC50: 2.00

Lookup result for COC(=O)C1Cc2ccc(OCCc3nc(-c4ccccc4)oc3C)cc2OC1=O (configuration not stated) ; measured log10 EC50: 2.11

Lookup result for COC(=O)C1Cc2ccc(OCCc3nc(-c4ccc(-c5ccccc5)cc4)oc3C)cc2OC1=O (configuration not stated) ; measured log10 EC50: 3.05
